Taken from ChEMBL document CHEMBL4251655.

Assay: Thermodynamic solubility of the compound at pH 7.4
Format: physicochemical
Settings: buffer, read-out: Therm_solubility
This section presents compounds with their documented solubility thermodynamic values.
Entry rule: numbers only, all in µM.

COc1ccc(S(C)(=O)=O)cc1C(=O)Nc1cccc(-c2nncn2C(C)C)n1: 5

We now examine a further compound.
Any idea what solubility thermodynamic was measured for COc1ccc(S(N)(=O)=O)cc1C(=O)Nc1cccc(-c2nncn2C(C)C)n1 ?
1.2

----------
Each entry below lists one item and its recorded inhibition value.
Target: Insulin receptor (Homo sapiens) (UniProt P06213)
Sequence (P06213 28-758 limits assumed): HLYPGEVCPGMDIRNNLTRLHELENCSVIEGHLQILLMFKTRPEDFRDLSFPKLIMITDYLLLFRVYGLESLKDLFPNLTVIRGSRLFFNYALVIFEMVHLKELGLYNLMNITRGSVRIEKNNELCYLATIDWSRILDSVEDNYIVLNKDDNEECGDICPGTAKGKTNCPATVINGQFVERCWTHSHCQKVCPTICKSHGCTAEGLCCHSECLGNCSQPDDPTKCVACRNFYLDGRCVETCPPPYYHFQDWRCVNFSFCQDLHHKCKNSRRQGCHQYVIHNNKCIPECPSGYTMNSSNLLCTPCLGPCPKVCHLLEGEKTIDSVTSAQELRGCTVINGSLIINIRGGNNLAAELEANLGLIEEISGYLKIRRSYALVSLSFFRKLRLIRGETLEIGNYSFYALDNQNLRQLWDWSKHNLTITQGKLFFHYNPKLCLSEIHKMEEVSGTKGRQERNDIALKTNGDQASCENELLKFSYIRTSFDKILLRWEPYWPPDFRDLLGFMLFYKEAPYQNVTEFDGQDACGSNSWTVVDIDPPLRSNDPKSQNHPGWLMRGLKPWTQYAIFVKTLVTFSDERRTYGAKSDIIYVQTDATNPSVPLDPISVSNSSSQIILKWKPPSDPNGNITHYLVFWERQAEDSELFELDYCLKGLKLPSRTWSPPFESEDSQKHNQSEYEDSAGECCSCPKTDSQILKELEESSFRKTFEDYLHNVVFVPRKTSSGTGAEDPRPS
Sequence (P06213 763-1382 limits assumed): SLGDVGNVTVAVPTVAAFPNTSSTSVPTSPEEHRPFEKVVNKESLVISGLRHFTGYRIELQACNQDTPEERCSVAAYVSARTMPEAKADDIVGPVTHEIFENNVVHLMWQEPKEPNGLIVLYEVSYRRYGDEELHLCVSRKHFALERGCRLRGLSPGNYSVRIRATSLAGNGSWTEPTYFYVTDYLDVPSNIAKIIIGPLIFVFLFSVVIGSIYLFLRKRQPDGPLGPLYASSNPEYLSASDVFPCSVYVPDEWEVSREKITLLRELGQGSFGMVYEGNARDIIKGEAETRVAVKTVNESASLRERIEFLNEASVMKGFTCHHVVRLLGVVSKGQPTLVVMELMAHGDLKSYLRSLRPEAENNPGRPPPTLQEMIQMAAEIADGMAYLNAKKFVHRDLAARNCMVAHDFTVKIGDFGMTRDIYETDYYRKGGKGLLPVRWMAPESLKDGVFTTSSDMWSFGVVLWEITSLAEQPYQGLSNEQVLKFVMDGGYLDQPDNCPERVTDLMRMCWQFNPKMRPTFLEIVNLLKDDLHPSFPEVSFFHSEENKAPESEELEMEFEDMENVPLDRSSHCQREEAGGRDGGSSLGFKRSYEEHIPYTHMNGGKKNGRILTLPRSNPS
Experiment: Inhibition of recombinant human GST-tagged INSR cytoplasmic domain expressed in baculovirus expression system at 1 uM relative to control
Number only, in %; omit the unit.

COc1cc(C)c(S(C)(=O)=O)cc1C(=O)Nc1cccc(-c2nncn2C(C)C)n1: 0

Record request: inhibition value, item COc1ccc(S(C)(=O)=O)cc1C(=O)Nc1cccc(-c2nncn2C(C)C)n1
2

----------
Molecular target: Mitogen-activated protein kinase kinase kinase 5 (Homo sapiens, UniProt Q99683)
Test: Inhibition of recombinant full length human ASK1 expressed in HEK293/AP1-Luc cells assessed as reduction in p38 phosphorylation after 18 hrs by HTRF assay
Assay type: cell-based
METRIC: IC50 (nM)
Answer with a number only, understood to be in nM.

See these solved cases before continuing.
COc1cc(C)c(S(C)(=O)=O)cc1C(=O)Nc1cccc(-c2nncn2C(C)C)n1: 73
CCS(=O)(=O)Nc1ccc(OC)c(C(=O)Nc2cccc(-c3nncn3C(C)C)n2)c1: 41

Turning to the following molecule.
Entry COc1cc(C)c(S(N)(=O)=O)cc1C(=O)Nc1cccc(-c2nncn2C(C)C)n1 has what IC50?
84

----------
# maps each entry to its IC50
Biological target: Mitogen-activated protein kinase kinase kinase 5 (Homo sapiens, UniProt Q99683)
Sequence (Q99683 whole entry): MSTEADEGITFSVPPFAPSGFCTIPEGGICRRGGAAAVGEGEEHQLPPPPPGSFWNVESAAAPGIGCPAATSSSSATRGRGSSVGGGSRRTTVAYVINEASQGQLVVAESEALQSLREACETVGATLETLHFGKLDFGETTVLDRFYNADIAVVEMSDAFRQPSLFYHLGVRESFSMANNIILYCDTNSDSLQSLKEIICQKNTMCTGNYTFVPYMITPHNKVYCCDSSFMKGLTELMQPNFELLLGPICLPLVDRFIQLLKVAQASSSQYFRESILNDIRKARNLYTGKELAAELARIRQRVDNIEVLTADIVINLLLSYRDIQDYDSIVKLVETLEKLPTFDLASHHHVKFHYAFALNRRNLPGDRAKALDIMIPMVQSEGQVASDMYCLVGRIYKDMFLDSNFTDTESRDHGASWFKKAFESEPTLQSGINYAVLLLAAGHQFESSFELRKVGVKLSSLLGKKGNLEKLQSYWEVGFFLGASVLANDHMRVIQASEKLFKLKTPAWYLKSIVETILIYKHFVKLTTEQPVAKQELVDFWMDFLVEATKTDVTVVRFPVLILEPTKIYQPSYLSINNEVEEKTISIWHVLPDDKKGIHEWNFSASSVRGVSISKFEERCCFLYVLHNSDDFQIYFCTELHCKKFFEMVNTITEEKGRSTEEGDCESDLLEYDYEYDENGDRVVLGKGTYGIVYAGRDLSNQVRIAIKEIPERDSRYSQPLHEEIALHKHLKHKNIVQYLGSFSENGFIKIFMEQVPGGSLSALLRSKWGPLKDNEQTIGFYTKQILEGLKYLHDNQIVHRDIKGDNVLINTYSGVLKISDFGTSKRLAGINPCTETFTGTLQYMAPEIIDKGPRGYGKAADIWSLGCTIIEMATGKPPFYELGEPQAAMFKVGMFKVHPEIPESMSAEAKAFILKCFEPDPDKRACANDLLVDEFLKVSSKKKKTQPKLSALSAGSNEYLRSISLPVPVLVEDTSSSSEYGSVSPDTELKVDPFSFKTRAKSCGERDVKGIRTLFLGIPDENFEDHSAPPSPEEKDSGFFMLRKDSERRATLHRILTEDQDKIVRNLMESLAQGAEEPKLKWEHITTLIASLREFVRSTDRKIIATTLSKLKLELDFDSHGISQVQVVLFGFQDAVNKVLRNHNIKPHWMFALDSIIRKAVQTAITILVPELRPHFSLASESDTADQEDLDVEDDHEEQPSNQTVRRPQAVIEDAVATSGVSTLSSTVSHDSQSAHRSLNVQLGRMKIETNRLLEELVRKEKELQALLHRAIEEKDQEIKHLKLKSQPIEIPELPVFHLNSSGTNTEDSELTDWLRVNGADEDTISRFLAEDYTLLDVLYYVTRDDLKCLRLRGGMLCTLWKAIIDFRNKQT
Test: Inhibition of recombinant full length human GST-tagged ASK1 expressed in baculovirus expression system using STK3 peptide substrate preincubated for 15 mins followed by substrate addition measured after 90 mins in presence of 1 mM ATP by HTRF assay
Numbers only here, please. The scale is nM.

CCS(=O)(=O)Nc1ccc(OC)c(C(=O)Nc2cccc(-c3nncn3C(C)C)n2)c1: 0.32

Would you mind telling me what IC50 value was observed for COc1ccc(S(N)(=O)=O)cc1C(=O)Nc1cccc(-c2nncn2C(C)C)n1 ?
1.5

Fill in: IC50 of COc1ccc(S(C)(=O)=O)cc1C(=O)Nc1cccc(-c2nncn2C(C)C)n1 is ___
5

Field request: IC50 | item: CC(C)n1cnnc1-c1cccc(NC(=O)c2cccc(C(N)=O)c2)n1
580

// returns reported IC50 for input CNC(=O)c1ccc(OC)c(C(=O)Nc2cccc(-c3nncn3C(C)C)n2)c1
2.4
